Value source: patent US20200199127A1

# MEASURED_ON: Human α2δ-1 subunit of Cav2.2 calcium channel (Homo sapiens)
# Sequence (P54289 25-1103): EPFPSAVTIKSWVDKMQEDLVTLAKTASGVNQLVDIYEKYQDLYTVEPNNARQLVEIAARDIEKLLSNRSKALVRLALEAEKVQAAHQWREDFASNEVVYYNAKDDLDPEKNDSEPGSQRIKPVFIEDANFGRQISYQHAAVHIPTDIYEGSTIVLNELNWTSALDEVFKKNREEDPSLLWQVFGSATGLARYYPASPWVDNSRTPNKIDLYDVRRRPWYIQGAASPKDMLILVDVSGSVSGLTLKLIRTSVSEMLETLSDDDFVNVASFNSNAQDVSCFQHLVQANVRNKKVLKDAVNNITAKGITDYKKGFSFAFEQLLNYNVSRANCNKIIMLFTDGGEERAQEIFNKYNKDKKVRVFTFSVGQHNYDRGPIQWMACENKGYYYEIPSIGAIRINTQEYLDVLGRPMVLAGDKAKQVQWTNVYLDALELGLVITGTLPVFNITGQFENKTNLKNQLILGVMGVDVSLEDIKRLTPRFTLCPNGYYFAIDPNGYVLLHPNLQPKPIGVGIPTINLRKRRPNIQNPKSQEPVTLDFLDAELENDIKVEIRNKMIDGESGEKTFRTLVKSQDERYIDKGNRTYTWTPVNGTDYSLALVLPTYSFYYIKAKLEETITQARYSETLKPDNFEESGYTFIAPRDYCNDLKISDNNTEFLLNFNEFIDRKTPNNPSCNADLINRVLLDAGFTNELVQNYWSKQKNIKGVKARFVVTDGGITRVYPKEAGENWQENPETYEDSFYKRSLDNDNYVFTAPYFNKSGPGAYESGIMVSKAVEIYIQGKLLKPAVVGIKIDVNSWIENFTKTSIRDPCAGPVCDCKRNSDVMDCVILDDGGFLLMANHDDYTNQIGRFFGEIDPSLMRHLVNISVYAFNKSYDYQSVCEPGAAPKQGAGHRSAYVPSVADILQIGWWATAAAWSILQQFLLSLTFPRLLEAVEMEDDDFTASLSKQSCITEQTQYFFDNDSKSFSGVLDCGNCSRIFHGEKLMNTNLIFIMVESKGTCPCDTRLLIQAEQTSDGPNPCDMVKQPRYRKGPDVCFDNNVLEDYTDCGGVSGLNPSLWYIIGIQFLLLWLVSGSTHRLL
# ASSAY_OVERVIEW: Human α2δ-1 subunit of Cav2.2 calcium channel assay, [3H]-Gabapentin binding
# TEST_SETTINGS: human α2δ-1 enriched membranes, 15 nM [3H]-Gabapentin; Ki as class symbol
A collection of compounds and their measured Ki

Solved entries (count: 5):
COMPOUND | MEASURED_ON | ENDPOINT_NAME | RESULT_VALUE
CCOc1ccc(-n2nc3c(N(C)Cc4ccn[nH]4)nnc(C)c3c2C)c(F)c1 | Human α2δ-1 subunit of Cav2.2 calcium channel (Homo sapiens) | Ki | 100 to 500 nM
CCOc1ccc(-n2nc3c(N(C)CCCc4ccccc4O)nnc(C)c3c2C)c(F)c1 | Human α2δ-1 subunit of Cav2.2 calcium channel (Homo sapiens) | Ki | ≥ 5000 nM
CCOc1ccc(-n2nc3c(N(CCO)Cc4cccnc4)nnc(C)c3c2C)c(F)c1 | Human α2δ-1 subunit of Cav2.2 calcium channel (Homo sapiens) | Ki | ≥ 5000 nM
CCOc1ccc(-n2nc3c(NCc4ccccc4CO)nnc(C)c3c2C)c(F)c1 | Human α2δ-1 subunit of Cav2.2 calcium channel (Homo sapiens) | Ki | 100 to 500 nM
CCOc1ccc(-n2nc3c(N(C)Cc4ncc[nH]4)nnc(C)c3c2C)c(F)c1 | Human α2δ-1 subunit of Cav2.2 calcium channel (Homo sapiens) | Ki | 500 to 5000 nM

Looking up "COc1ccc(-n2nc3c(N(C)Cc4ccccn4)nnc(C)c3c2C)cc1" , I see its Ki listed as 500 to 5000 nM

Memo: "CCOc1ccc(-n2nc3c(NCCc4ccccn4)nnc(C)c3c2C)c(F)c1" , reported Ki: 100 to 500 nM
